Target: UniProt:P00742
Sequence (P00742 41-179 limits assumed): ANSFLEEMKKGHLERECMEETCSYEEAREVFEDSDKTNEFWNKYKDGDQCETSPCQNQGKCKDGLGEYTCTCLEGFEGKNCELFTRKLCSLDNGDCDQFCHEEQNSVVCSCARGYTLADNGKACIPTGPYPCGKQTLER
Sequence (P00742 235-488 limits assumed): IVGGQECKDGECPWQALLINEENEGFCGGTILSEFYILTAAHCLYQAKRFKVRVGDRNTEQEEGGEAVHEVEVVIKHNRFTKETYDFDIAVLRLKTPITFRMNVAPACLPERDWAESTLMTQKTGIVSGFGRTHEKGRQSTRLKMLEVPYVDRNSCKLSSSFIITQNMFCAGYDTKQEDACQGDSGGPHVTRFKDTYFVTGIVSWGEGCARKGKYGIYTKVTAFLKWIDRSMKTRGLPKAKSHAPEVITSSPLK
Experiment: In vitro inhibition was measured against Human Coagulation factor X
READOUT_LABEL: pKi
Entry type: numeric. Quantity: pKi, the -log10 of concentration in molar units.

Record excerpt, results attached:
N=C(N)NCCCNC(=O)[C@@H]1CS[C@H]2CC[C@@H](NS(=O)(=O)Cc3ccccc3)C(=O)N21; 4.59
N=C(N)NCCCNC(=O)[C@@H]1CS[C@H]2CC[C@@H](NS(=O)(=O)c3cccc4ccccc34)C(=O)N21; 5.17

As a next step, examine the compound that follows.
Item N=C(N)NCCCNC(=O)[C@@H]1CS[C@H]2CC[C@H](NS(=O)(=O)c3cccc4ccccc34)C(=O)N21 with UniProt:P00742 - pKi?
4.75

---

Target: Serine protease 1 (Bos taurus, UniProt P00760)
Sequence (P00760 whole entry): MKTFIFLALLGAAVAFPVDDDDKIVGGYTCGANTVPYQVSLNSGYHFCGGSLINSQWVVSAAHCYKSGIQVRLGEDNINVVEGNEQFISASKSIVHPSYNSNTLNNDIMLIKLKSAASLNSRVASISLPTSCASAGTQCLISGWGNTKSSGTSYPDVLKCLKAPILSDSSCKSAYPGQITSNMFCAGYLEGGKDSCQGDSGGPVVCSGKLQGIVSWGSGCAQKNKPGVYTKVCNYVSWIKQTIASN
Experiment: In vitro inhibition was measured against […] bovine pancreatic trypsin.
READOUT_LABEL: Ki (µM)
Just the number please, in µM, no unit attached.

A selection of reference data follows.
N=C(N)NCCCNC(=O)[C@@H]1CS[C@H]2CC[C@H](NS(=O)(=O)Cc3ccccc3)C(=O)N21; 7.9
NC(N)=NCCCCNC(=O)[C@@H]1CS[C@H]2CC[C@@H](N)C(=O)N21.O=C(O)C(F)(F)F; 5.36
NC(N)=NCCCNC(=O)[C@@H]1CS[C@H]2CC[C@@H](N)C(=O)N21.O=C(O)C(F)(F)F; 25.1

API: value(readout=Ki, system=Serine protease 1 (Bos taurus, UniProt P00760)) for record NC(N)=NCCCCNC(=O)[C@@H]1CS[C@H]2CC[C@H](N)C(=O)N21.O=C(O)C(F)(F)F
3.58

Which Ki is reported with Serine protease 1 (Bos taurus, UniProt P00760) for this entry: N=C(N)NCCCNC(=O)[C@@H]1CS[C@H]2CC[C@@H](NS(=O)(=O)c3cccc4ccccc34)C(=O)N21 ?
3.4

API: value(readout= Ki, system= Serine protease 1 (Bos taurus, UniProt P00760), query= N=C(N)NCCCNC(=O)[C@@H]1CS[C@H]2CC[C@@H](NS(=O)(=O)Cc3ccccc3)C(=O)N21 )
5.1

Param readout= Ki; system= Serine protease 1 (Bos taurus, UniProt P00760); entry= NC(N)=NCCCNC(=O)[C@@H]1CS[C@H]2CC[C@H](N)C(=O)N21 ; returns value.
13.3

---

Known Ki of a selection of molecules
Biological target: Prothrombin (Homo sapiens, UniProt P00734)
Test: In vitro inhibition was measured against Human Thrombin.
Your answer should be a plain number; it is taken to be in µM.

Would you please look over these solved cases?
NC(N)=NCCCNC(=O)[C@@H]1CS[C@H]2CC[C@@H](N)C(=O)N21.O=C(O)C(F)(F)F; 10.3
NC(N)=NCCCCNC(=O)[C@@H]1CS[C@H]2CC[C@H](N)C(=O)N21.O=C(O)C(F)(F)F; 19.5

Okay, now this molecule:
Would you mind telling me what Ki value was observed for N=C(N)NCCCNC(=O)[C@@H]1CS[C@H]2CC[C@H](NS(=O)(=O)Cc3ccccc3)C(=O)N21 ?
0.111

Recorded values, source ChEMBL document CHEMBL1131291.
